Test system: PC15
Experiment: qHTS profiling for inhibitors of Plasmodium falciparum proliferation (AID 504749); also: nearly all actives have a fitted effect of over 60% in size
Conditions: P. falciparum in erythrocytes, SYBR Green DNA, 72 h; series mostly up to 28.7 µM
Results filed as inconclusive are left out. Calls of active or inactive are those of the source. Calls follow the shape of the dose curve; as a rule, active = well fitted inhibition curve with a large enough effect; inconclusive = small, poorly fitted or top-dose-only effect; inactive = flat fitted curve, though single readings scatter.
Hello, when you answer, please use one of the following outcomes: true (active), false (inactive)

Query :: Which result was noted for this compound in the test: S=C1NC=NC2N=CNC12 (stereo not given)
Result :: false

Query :: Again, but for CC1CCC(C(C)C)C(OC(=O)c2ccccc2O)C1 (stereo not given)
Result :: false

Query :: Follow-up entry: `C1OCOCO1`
Result :: false

Query :: Also CC(C)(CO)C(O)C(=O)NCCCC(=O)O (stereo not given) ?
Result :: false

Query :: What about `CC1(C)S[C@@H]2[C@H](NC(=O)COc3ccccc3)C(=O)N2[C@H]1C(=O)O` ?
Result :: false

Query :: Item: CC(=O)OC1CC2CCC1(C)C2(C)C (stereo not given)
Result :: false

Query :: Likewise for Cc1cc(CC(C)CC(C)(C)C)n(O)c(=O)c1 (stereo not given) ?
Result :: true

Query :: Continue with `CC(C)CN(C[C@@H](OP(=O)(O)O)[C@H](Cc1ccccc1)NC(=O)O[C@@H]1CCOC1)S(=O)(=O)c1ccc(N)cc1`
Result :: false

Query :: Another compound to check: `C/C=C\c1ccc(OC)cc1`
Result :: false

Query :: Could you do the same for `CN1CC[C@H](CN2c3ccccc3Sc3ccccc32)C1` , please?
Result :: true

src = PubChem BioAssay (NCATS)
